Listed sequences paired with reported IC50
target: DRB1*0901 (Homo sapiens, UniProt P01903+P01911, A100R/A103E/D57H/D86V/F55Y/F60I/F76Y/I96F/K127E/L162R/M171V/P40D/Q125H/Q99R/R33Q/R42F/S133A/S66N/T210M/V115G/W38K/Y107V/Y59G/Y89S); assay: Class II peptide-binding assay DRB1*0901 (DR9)
Ends that are not written are not given here.
The reply should contain only the number, in µM.

DTGRKLFRVYSNFLR    0.161

*Q* Could you share which IC50 value was measured for YTLLQAAPALDKLKLTGDEATGANI ?
*A* 1.95
